# system tested: UniProtKB Q04759
# Sequence (Q04759 whole entry): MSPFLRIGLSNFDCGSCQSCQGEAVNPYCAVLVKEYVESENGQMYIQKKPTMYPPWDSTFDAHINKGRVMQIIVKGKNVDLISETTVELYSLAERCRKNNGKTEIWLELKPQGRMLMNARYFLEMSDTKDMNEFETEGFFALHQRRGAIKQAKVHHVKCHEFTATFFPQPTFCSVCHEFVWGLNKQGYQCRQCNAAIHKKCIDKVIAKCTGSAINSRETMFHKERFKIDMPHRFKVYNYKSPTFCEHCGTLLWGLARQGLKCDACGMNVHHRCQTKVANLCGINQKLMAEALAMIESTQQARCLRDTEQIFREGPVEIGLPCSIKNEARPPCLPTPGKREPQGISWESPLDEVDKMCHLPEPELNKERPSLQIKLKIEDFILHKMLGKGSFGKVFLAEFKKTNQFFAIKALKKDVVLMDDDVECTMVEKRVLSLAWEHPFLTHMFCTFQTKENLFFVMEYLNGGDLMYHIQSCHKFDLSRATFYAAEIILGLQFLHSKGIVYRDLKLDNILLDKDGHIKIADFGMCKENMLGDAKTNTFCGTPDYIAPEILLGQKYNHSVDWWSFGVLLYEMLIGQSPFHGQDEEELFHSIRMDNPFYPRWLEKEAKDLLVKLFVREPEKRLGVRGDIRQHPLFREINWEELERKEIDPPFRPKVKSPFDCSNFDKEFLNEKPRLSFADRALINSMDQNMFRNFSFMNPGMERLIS
# experiment description: Binding affinity to GST-tagged PKCtheta expressed in Escherichia coli BL21(DE3) by fluorescence quenching
Each record here notes measured EC50.
assay metric: EC50 (µM)

molecule	system tested	assay metric	unit of measure	measured result
COc1cc(/C=C/C(=O)CC(=O)/C=C/c2ccc(O)c(OC)c2)ccc1O	UniProtKB Q04759	EC50	µM	11.1
CCCCCCCCCCCCCCCCOc1ccc(/C=C/C(O)=C/C(=O)/C=C/c2ccc(O)c(OC)c2)cc1OC	UniProtKB Q04759	EC50	µM	5.95
CCCCCCCCCCCCCC(=O)O[C@@H]1[C@@H](C)[C@@]2(O)[C@@H](C=C(CO)C[C@]3(O)C(=O)C(C)=C[C@@H]23)[C@@H]2C(C)(C)[C@]12OC(C)=O [PHORBOL MYRISTATE ACETATE]	UniProtKB Q04759	EC50	µM	3.19
CCCCCCCC(=O)OC[C@H](CO)OC(=O)CCCCCCC	UniProtKB Q04759	EC50	µM	5.24
CCCCCCCCOc1ccc(/C=C/C(O)=C/C(=O)/C=C/c2ccc(O)c(OC)c2)cc1OC	UniProtKB Q04759	EC50	µM	4
CCCCCCCC/C=C\CCCCCCCC(=O)OC[C@H](CO)OC(=O)CCCCCCC/C=C\CCCCCCCC	UniProtKB Q04759	EC50	µM	8.67
O=C(/C=C(O)/C=C/c1ccc(O)c(O)c1)/C=C/c1ccc(O)c(O)c1	UniProtKB Q04759	EC50	µM	6.57

----------
# system tested: Protein kinase C delta type (Homo sapiens)
# Sequence (Q05655 whole entry): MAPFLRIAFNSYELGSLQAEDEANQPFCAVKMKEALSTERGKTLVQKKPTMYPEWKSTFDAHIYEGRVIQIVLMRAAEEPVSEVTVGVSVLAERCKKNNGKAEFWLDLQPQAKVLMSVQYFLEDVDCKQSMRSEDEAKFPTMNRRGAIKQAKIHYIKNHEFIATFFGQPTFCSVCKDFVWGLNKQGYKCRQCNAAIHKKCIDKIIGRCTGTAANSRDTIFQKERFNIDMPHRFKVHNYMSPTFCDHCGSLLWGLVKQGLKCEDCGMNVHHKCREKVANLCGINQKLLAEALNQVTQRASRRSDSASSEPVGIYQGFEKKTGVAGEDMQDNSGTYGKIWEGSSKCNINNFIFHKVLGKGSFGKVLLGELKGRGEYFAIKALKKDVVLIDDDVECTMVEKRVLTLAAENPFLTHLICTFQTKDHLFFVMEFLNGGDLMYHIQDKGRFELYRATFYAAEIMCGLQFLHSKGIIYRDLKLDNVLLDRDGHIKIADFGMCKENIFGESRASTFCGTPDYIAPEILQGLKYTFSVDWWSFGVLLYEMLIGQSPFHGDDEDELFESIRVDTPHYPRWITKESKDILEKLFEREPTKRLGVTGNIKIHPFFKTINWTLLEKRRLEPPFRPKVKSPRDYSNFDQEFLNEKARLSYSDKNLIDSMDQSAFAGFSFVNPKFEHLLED
# experiment description: Binding affinity to GST-tagged PKCdelta expressed in Escherichia coli BL21(DE3) by fluorescence quenching

compound	system tested	EC50 (µM)
CCCCCCCC/C=C\CCCCCCCC(=O)OC[C@H](CO)OC(=O)CCCCCCC/C=C\CCCCCCCC	Protein kinase C delta type (Homo sapiens)	7.49
CCCCCCCCOc1ccc(/C=C/C(O)=C/C(=O)/C=C/c2ccc(O)c(OC)c2)cc1OC	Protein kinase C delta type (Homo sapiens)	8.69
CCCCCCCCCCCCCCCCOc1ccc(/C=C/C(O)=C/C(=O)/C=C/c2ccc(O)c(OC)c2)cc1OC	Protein kinase C delta type (Homo sapiens)	8.98
CCCCCCCCCCCCCC(=O)O[C@@H]1[C@@H](C)[C@@]2(O)[C@@H](C=C(CO)C[C@]3(O)C(=O)C(C)=C[C@@H]23)[C@@H]2C(C)(C)[C@]12OC(C)=O [PHORBOL MYRISTATE ACETATE]	Protein kinase C delta type (Homo sapiens)	5.17
O=C(/C=C(O)/C=C/c1ccc(O)c(O)c1)/C=C/c1ccc(O)c(O)c1	Protein kinase C delta type (Homo sapiens)	12.5
COc1cc(/C=C/C(=O)CC(=O)/C=C/c2ccc(O)c(OC)c2)ccc1O [CURCUMIN]	Protein kinase C delta type (Homo sapiens)	10.7

----------
Recorded pEC50 for the following molecules
# system tested: Protein kinase C epsilon type (Homo sapiens, UniProt Q02156)
# Sequence (Q02156 whole entry): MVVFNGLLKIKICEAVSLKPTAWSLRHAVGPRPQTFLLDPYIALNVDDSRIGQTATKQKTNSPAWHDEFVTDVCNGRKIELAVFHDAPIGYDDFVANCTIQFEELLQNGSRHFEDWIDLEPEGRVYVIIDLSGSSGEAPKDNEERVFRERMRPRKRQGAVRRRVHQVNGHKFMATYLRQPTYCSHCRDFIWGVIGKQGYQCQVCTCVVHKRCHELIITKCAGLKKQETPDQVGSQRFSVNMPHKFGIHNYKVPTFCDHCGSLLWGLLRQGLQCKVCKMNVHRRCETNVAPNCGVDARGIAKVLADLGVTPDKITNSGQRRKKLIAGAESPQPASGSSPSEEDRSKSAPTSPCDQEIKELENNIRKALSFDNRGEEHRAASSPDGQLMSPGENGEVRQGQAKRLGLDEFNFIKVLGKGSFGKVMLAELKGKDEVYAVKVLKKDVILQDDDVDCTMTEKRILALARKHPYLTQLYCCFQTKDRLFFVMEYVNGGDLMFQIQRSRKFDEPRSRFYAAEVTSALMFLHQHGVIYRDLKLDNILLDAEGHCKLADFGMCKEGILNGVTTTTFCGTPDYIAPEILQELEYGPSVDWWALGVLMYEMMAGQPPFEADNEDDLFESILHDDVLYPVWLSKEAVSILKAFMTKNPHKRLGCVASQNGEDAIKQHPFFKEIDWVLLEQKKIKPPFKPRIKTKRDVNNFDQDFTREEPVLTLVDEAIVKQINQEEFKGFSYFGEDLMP
# experiment description: Binding affinity to GST-tagged PKCepsilon expressed in Escherichia coli BL21(DE3) by fluorescence quenching
pEC50: −log10 of the molar value.

molecule	pEC50
CCCCCCCCOc1ccc(/C=C/C(O)=C/C(=O)/C=C/c2ccc(O)c(OC)c2)cc1OC	5.01
O=C(/C=C(O)/C=C/c1ccc(O)c(O)c1)/C=C/c1ccc(O)c(O)c1	4.95
CCCCCCCCCCCCCC(=O)O[C@@H]1[C@@H](C)[C@@]2(O)[C@@H](C=C(CO)C[C@]3(O)C(=O)C(C)=C[C@@H]23)[C@@H]2C(C)(C)[C@]12OC(C)=O [PHORBOL MYRISTATE ACETATE]	5.25
CCCCCCCCCCCCCCCCOc1ccc(/C=C/C(O)=C/C(=O)/C=C/c2ccc(O)c(OC)c2)cc1OC	4.97
CCCCCCCC/C=C\CCCCCCCC(=O)OC[C@H](CO)OC(=O)CCCCCCC/C=C\CCCCCCCC	4.85
COc1cc(/C=C/C(=O)CC(=O)/C=C/c2ccc(O)c(OC)c2)ccc1O	5.06

From: ChEMBL document CHEMBL1156910
